target: Mannose-6-phosphate isomerase (Homo sapiens) (UniProt P34949); assay: inhibitors of human PMI, primary screen, biochemical, fluorescence intensity, coupled assay (AID 1209); details: purified PMI enzyme, at 20 µM, active compounds read high;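 also: plate controls were DMSO vehicle for no effect and wells lacking substrate for full effect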
Sequence (P34949 whole entry, looked up): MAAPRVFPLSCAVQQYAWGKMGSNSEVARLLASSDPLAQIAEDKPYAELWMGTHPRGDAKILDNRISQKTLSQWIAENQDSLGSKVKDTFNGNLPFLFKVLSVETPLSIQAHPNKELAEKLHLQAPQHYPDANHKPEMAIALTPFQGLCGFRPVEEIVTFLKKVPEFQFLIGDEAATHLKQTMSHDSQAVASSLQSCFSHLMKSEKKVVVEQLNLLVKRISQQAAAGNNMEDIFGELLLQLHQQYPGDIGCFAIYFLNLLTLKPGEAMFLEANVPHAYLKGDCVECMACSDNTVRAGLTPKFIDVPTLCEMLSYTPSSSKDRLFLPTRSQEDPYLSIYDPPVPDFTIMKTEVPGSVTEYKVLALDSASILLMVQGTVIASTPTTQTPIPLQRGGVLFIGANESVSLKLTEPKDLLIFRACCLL
Hit rate of the full screen: of about 190,000 compounds, about 810 (0.43%) were called active. This excerpt belongs to a sample that is enriched for actives.
ATTRIBUTE_MEASURED: inhibition (%)
Reply numerically in %, unit not repeated.

# example entries with known answers
COMPOUND: O=C(COC(=O)[C@@H]1CCCN1S(=O)(=O)c1ccccc1F)Nc1ccc(OC(F)F)cc1
VAL: 9.6

COMPOUND: O=C(CSc1n[nH]c(-c2ccncc2)n1)NC1CCS(=O)(=O)C1 (stereo not given)
VAL: 77.1

COMPOUND: CCCOc1ccc(C2/C(=C(/O)c3ccc(F)cc3)C(=O)C(=O)N2CCCN(C)C)cc1 (stereo not given)
VAL: 16.2

Incoming: Sample Cc1cc(C(=O)N/N=C/c2cccc([N+](=O)[O-])c2O)n[nH]1 — what was its inhibition?
Outgoing: 52.3

Incoming: Look up inhibition for this compound: Oc1ccccc1/C=C/c1noc(-c2ccccc2O)n1
Outgoing: -7

Incoming: Which inhibition reading was recorded for the compound O=c1cc(O)c2sc(Nc3ccc(F)c(Cl)c3)nc2[nH]1 ?
Outgoing: 41.4

###

target: Mannose-6-phosphate isomerase (Homo sapiens); assay: inhibitors of human PMI, primary screen, biochemical, fluorescence intensity, coupled assay (AID 1209); conditions: purified PMI enzyme, at 20 µM
About 810 (0.43%) of roughly 190,000 compounds were called active. Rule as the data show it: active = inhibition above about 50%; inactive = the rest. The sample as a whole holds a higher share of actives than the screen did.
Result category, one only: active, inactive

COMPOUND: O=C(NCCc1c[nH]c2ccccc12)C(=O)NCC1OCCN1S(=O)(=O)c1ccc(Cl)cc1 (centres undefined)
DISCRETE_LABEL: inactive
//
COMPOUND: N#Cc1ccccc1-n1c(N)c(C(=O)N2CCCC2)sc1=S
DISCRETE_LABEL: active
//
COMPOUND: Cc1cc2nc[nH]c2cc1[N+](=O)[O-]
DISCRETE_LABEL: inactive
//
COMPOUND: Cc1ccc(S(=O)(=O)/N=C2/C=C(Sc3ncn[nH]3)C(=O)c3ccccc32)cc1
DISCRETE_LABEL: active
//
COMPOUND: CC(C)c1ccc(S(=O)(=O)/N=C2/C=C(Sc3ncn[nH]3)C(=O)c3ccccc32)cc1
DISCRETE_LABEL: active
//
COMPOUND: CCOc1cccc(OCCOCCOc2ccccc2C(C)=O)c1
DISCRETE_LABEL: inactive
//
COMPOUND: CCN1CCCC1CNS(=O)(=O)c1cccc(C(F)(F)F)c1 (centres undefined)
DISCRETE_LABEL: inactive
//
COMPOUND: Cc1ccc(S(=O)(=O)NCCOc2nc(N(C)C)nc(N3CCOCC3)n2)cc1
DISCRETE_LABEL: inactive
//
COMPOUND: NS(=O)(=O)c1ccc(CCNC(=O)CSc2ccc3ccccc3c2)cc1
DISCRETE_LABEL: inactive
//
COMPOUND: COc1ccc(N2CCN(S(=O)(=O)c3cccc(C(F)(F)F)c3)CC2)cc1
DISCRETE_LABEL: inactive

Incoming: Assay result, entry CCOc1ccc(S(=O)(=O)Nc2ccc(O)c(Sc3ncn[nH]3)c2)cc1 — outcome?
Outgoing: inactive

Incoming: How was Cc1ccc(-n2c(N)c(C(=O)N3CCCCC3)sc2=S)cc1 classified in this test?
Outgoing: inactive

Incoming: Recorded test call requested for O=C1c2ccccc2C(=O)N1CCSc1ncn[nH]1
Outgoing: inactive

###

molecular target: Mannose-6-phosphate isomerase (Homo sapiens) (UniProt P34949); experiment: inhibitors of human PMI, primary screen, biochemical, fluorescence intensity, coupled assay (AID 1209); conditions: purified PMI enzyme, at 20 µM, active compounds read high
The whole screen tested about 190,000 compounds, of which about 810 (0.43%) were called active. The entries come from a sample that favours actives as a whole.
# Lookup of reported inhibition keyed by entry
Give the number; % is assumed, so skip it.

Examples with their reported inhibition follow.
STRUCTURE_SMILES_STRING: CC(=O)c1ccc(NC(=S)N2CCN(c3cccc(Cl)c3)CC2)cc1
EXPERIMENTAL_TARGET: Mannose-6-phosphate isomerase (Homo sapiens) (UniProt P34949)
MEASUREMENT_UNIT: %
inhibition: -6.5
//
STRUCTURE_SMILES_STRING: CC(C)n1nc(C(=O)Nc2nnc(SCc3c(Cl)cccc3Cl)s2)c2ccccc2c1=O
EXPERIMENTAL_TARGET: Mannose-6-phosphate isomerase (Homo sapiens) (UniProt P34949)
MEASUREMENT_UNIT: %
inhibition: 7.2
//
STRUCTURE_SMILES_STRING: C=CCn1c2[n+](c3ccccc3c1=O)CCCCC2
EXPERIMENTAL_TARGET: Mannose-6-phosphate isomerase (Homo sapiens) (UniProt P34949)
MEASUREMENT_UNIT: %
inhibition: 66.2

Below: the item to evaluate.
Incoming: Quick one: inhibition for CCOC(=O)c1c(NC(=O)CSc2nnnn2-c2ccc(OC)cc2)sc(C)c1C ?
Outgoing: 60

###

Below, each entry is listed with its recorded inhibition.
biological target: Mannose-6-phosphate isomerase (Homo sapiens) (UniProt P34949); test: inhibitors of human PMI, primary screen, biochemical, fluorescence intensity, coupled assay (AID 1209); conditions: purified PMI enzyme, at 20 µM, active compounds read high;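 also: plate controls were DMSO vehicle for no effect and wells lacking substrate for full effect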
The campaign covered roughly 190,000 compounds. About 810 (0.43%) were called active. Many of the other results were omitted from the sample, so actives are more common in it than they were.
The answer is to be given in %; state only the numeric part.

Illustrative cases are given below, each with its answer.
STRUCTURE_SMILES_STRING: CCN=c1scc(C)n1/N=C/c1ccsc1
VAL: -6.7
--
STRUCTURE_SMILES_STRING: Cc1ccc2oc(-c3ccccc3C(=O)O)cc(=O)c2c1
VAL: -3.3

// next item, inhibition requested
Incoming: Quick one: inhibition for COCCN=c1scc(-c2ccccc2)n1/N=C/c1c[nH]c2ccccc12 ?
Outgoing: 25.3

###

target: Mannose-6-phosphate isomerase (Homo sapiens) (UniProt P34949); assay: inhibitors of human PMI, primary screen, biochemical, fluorescence intensity, coupled assay (AID 1209); settings: purified PMI enzyme, at 20 µM;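 also: plate controls were DMSO vehicle for no effect and wells lacking substrate for full effect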
Among all 190,000 compounds or so, about 810 (0.43%) were called active. No stated cut-off is given here; in the data, active means inhibition above about 50%; inactive means the rest. Many of the other results were omitted from the sample, so actives are more common in it than they were.
Pick from TRUE for active, FALSE for inactive when you respond.

The following compounds have reported results that may help.
COMPOUND: CCc1ccc(/C=C/c2c[nH]c3ccccc23)[n+](CC)c1
EXPERIMENTAL_TARGET: Mannose-6-phosphate isomerase (Homo sapiens) (UniProt P34949)
DISCRETE_LABEL: TRUE
//
COMPOUND: c1ccc(CCc2nn3c(Cc4ccccc4)nnc3s2)cc1
EXPERIMENTAL_TARGET: Mannose-6-phosphate isomerase (Homo sapiens) (UniProt P34949)
DISCRETE_LABEL: FALSE

Incoming: What classification did CC(=O)NC(CCS(C)(=O)=O)C(=O)Nc1ccccc1 (configuration not stated) end up with in this test?
Outgoing: FALSE

Incoming: Query: recorded result category for N#Cc1c(NC(=O)Cn2nc(C(F)(F)F)c3c2CCCC3)sc2c1CCC2 in this test
Outgoing: TRUE

Incoming: Hi, sorry to bother you, what did the test record for O=C(O)C1Sc2[nH]c(=O)sc2C2c3cc(Cl)ccc3OC(=O)C12 (configuration not stated) ?
Outgoing: TRUE

Incoming: Record lookup: outcome of this test for O=C(O)C1Sc2[nH]c(=O)sc2C2c3ccc(O)cc3OC(=O)C12 (configuration not stated) ?
Outgoing: FALSE

Incoming: Look up the recorded call for Cc1nn(C)c(C)c1N1C(=O)c2cccc3c(Br)ccc(c23)C1=O in this test.
Outgoing: FALSE

###

target: Mannose-6-phosphate isomerase (Homo sapiens) (UniProt P34949); experiment: inhibitors of human PMI, primary screen, biochemical, fluorescence intensity, coupled assay (AID 1209); details: purified PMI enzyme, at 20 µM, active compounds read high;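 also: plate controls were DMSO vehicle for no effect and wells lacking substrate for full effect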
Hit rate of the full screen: of about 190,000 compounds, about 810 (0.43%) were called active. The list comes from a sample in which actives are over-represented; it also holds close analogues and randomly drawn compounds.
ATTRIBUTE_MEASURED: inhibition (%)
Express the result in % but write the number alone.

Solved entries (count: 3):
COMPOUND: CC(=O)c1cc2c(O)c(O)ccc2o1
VAL: 81.1
--
COMPOUND: COc1ccccc1C(OC(=O)c1cccs1)C(=O)NCc1ccco1 (configuration not stated)
VAL: -1.9
--
COMPOUND: COCCNC(=O)C(c1cccs1)N(C(=O)Cn1nnc2ccccc21)c1cccc(C)c1 (configuration not stated)
VAL: 5.9

Incoming: Tell me the measured inhibition of COc1cc(NC(=O)CN2C(=O)CN(C)C2=O)c(C)cc1[N+](=O)[O-] , please.
Outgoing: -9.8

Incoming: For the compound CCOC(=O)C(C)n1cnc2c(nnn2-c2ccc(OC)cc2)c1=O (configuration not stated) , what inhibition is on record?
Outgoing: -2.7

Incoming: I'd like to know its inhibition. The compound in question is COc1ccc(CN2C(=O)c3ccccc3C2C(=O)NCCc2ccccc2)c(OC)c1 (configuration not stated)
Outgoing: 17.9

Incoming: Form field: reported inhibition of COc1ccc(Cc2nnc(N)s2)cc1OC
Outgoing: -1.6

Incoming: For the compound Cc1cc(=O)n2ccsc2n1 , what inhibition is on record?
Outgoing: 7.1

Incoming: Using the record for CCOc1cc(NC(=O)CCl)c(OCC)cc1NC(C)=O , report its inhibition.
Outgoing: -3.2

Incoming: Reported inhibition, compound Cc1nn(-c2ccccn2)c2c1C(=O)C(Br)CC2 (configuration not stated) : ____
Outgoing: 72

Incoming: Please look up its inhibition: Cc1ccc(C)c(NC(=S)Nc2cccnc2)c1
Outgoing: -7

Incoming: Entry Cc1cc(=O)n2cccc(O)c2n1 : reported inhibition = ?
Outgoing: 71

Incoming: // query inhibition value for entry c1ccc2[nH]c(SN3CCOCC3)nc2c1
Outgoing: 94.5

Incoming: I have this compound here, Cc1cc(C)n(-c2cc(N3CCN(S(=O)(=O)c4ccc(Br)cc4)CC3)ccc2[N+](=O)[O-])n1 , and I need its recorded inhibition.
Outgoing: 13.5

Incoming: I have this compound here, COC(=O)/C(C(C)=O)=C(\C=C\N(C)C)N(C)C , and I need its recorded inhibition.
Outgoing: 1

Incoming: Can you share its inhibition? I mean this compound: CCOC(=O)C1C(=O)NC(SCC(=O)OC)=C(C#N)C1c1ccccc1OCC (configuration not stated)
Outgoing: 14.3

Incoming: Query: inhibition; subject: CCn1c(COc2ccccc2OC)nnc1SCC#N
Outgoing: 5.9

Incoming: Which measured inhibition value corresponds to CC(C)NC(=O)COc1nncc2ccccc12 ?
Outgoing: 15.9
